Molecular target: T1, mouse TREML1 ECD (mouse, UniProt Q8K558 21-175)
T1 construct: also called murine TREML1 ECD
T1 sequence: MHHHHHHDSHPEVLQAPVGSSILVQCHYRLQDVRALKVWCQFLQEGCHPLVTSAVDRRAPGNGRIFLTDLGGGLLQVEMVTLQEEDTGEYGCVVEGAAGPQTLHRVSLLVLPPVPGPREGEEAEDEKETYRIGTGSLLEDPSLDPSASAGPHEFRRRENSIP
Assay: solid phase binding assay (ELISA), antigen coated
quantity-measured: pEC50
Scale: negative log10 of molar concentration, which is what pEC50 denotes.

These solved cases illustrate the format of a correct answer.
>>> endpoint_result("Anti-TREML1 Antibody Clone 28A9 (antibody, V domains shown, It was detected with anti-mouse IgG) VH: EVQLQQSGPELVKPGASVKMSCKASGYTFTNYVMHWVKQKPGQGLEWIGYFNPYNGHAKYSEKFTGKATLTSDRSSSTAYMELNSLTSEDSAVYYCTRDFNYYVGAMDYWGQGTSVTVSS VL: DVVMTQSPLSLPVNLGDHASISCRSSQSLIHSNGNTYLHWYLQKPGQSPKLLVYQVSKRFSGVPDRFSGSGSGTDFTLKISRVEAEDLGVYFCSQSTHIWTFGGGTTLEIK")
8.61
>>> endpoint_result("Anti-TREML1 Antibody Clone 27D3 (antibody, V domains shown, It was detected with anti-mouse IgG) VH: DVQLQQSGPELVKPGASVKMSCKASGYTFTEYVIHWVKQRPGQGLEWFGYFNPYTGGSKFNEKFKDKATLTSDRSSNTVYMELYSLTSEDSAVYYCARDFNYYVGAMDYWGQGTSVTVSS VL: DVALTQTPLSLPVSLGDQASISCRSSQSLVHSNGNTYLHWYLQKSGQSPKLLIYKVSNRFSGVPDRFSGSGSVTEFTLKISRVEAEDLGVYFCSQSSHIWTFGGGTRLEIK")
7.60
>>> endpoint_result("Anti-TREML1 Antibody Clone 23F10 (antibody, V domains shown, It was detected with anti-mouse IgG) VH: EVQLQQSGPELVRPGASVKVSCKASGYIFTDYVIHWVKQKPGQGLEWFGYINPYTGGPKYSETARGKATLTSDSSSNTAYMVLTSLTSDDSAVYYCTRDFNYYVGAMDFWGQGTSVTVSS VL: AAVLTQTPLSLPVSLGDQASISCRSTQSLVHSNGNTYVHWYLQKAGQSPKLLIYKVSNRFSGVPDRFSGSGSGTDFTLKISRVEAEDLGVYFCSQSTYVWTFGGGTKLEIE")
9.09

Bench note: what pEC50 did Anti-TREML1 Antibody Clone 26A6 (antibody, V domains shown, It was detected with anti-mouse IgG, so it is a mouse antibody) VH: EVKLVESGGGLVQPGGSRKLSCAASGFTFSDYGMAWVRQAPGKGPEWIAFISNLAYRIYYADTVTGRFTISRENAKNTLYLEMSSLRSEDSAIYYCVREDYGNNGAMDYWGQGTSVTVSS VL: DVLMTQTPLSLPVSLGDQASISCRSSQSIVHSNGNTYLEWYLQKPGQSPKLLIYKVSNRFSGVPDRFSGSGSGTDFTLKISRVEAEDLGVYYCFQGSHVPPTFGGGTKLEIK show? 9.40

Bench note: what pEC50 did Anti-TREML1 Antibody Clone 18D8 (antibody, V domains shown, It was detected with anti-mouse IgG) VH: EVQVQQSGPELVNPGASVRLSCKASGYIFTDYVIHWVRQKPGQGLEWIGYMNPYTDGPKYSDKIKDKAILTSDRSSNTVYMELRSLTSEDSAVYFCARDFNYYVGAMDFWGQGTSVTVSS VL: DVVLTQTPLSLPVSLGDQASVSCRSSQSLLHSNGNTYLHWYLQKPGQSPKLLIYKVSNRFSGVPDRFTGSGSGTDFTLKISRVEAEDLGVYFCSQSTHIWTFGGGTKLEIK show? 7.48

Bench note: what pEC50 did Anti-TREML1 Antibody Clone 29F4 (antibody, V domains shown, It was detected with anti-mouse IgG) VH: EVQLQQSGPELVRPGASVKVSCKASGYIFTDYVIHWVKQKPGQGLEWFGYINPYTGGPKYSETAKGKATLTSDSSSNTAYMVLTSLTSEDSAVYYCTRDFNYYVGAMDFWGQGTSVTVSS VL: GAVLTQTPLSLPVSLGDQASISCKSTQSLVHSNGNTYVHWYLQKAGQSPKLLIYKVSNRFSGVPDRFIGSGSGTDFTLKISRVEAEDLGVYFCSQSTYVWTFGGGTKLEIE show? 9.03
